- protocol: NCI Yeast Anticancer Drug Screen. Data for the cln2 rad14 strain (AID 165);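 note: 0% = growth equal to vehicle treated cultures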
- conditions: S. cerevisiae cln2 rad14 strain, active compounds read high; at 50.0 µM unless noted
About 79,000 compounds went through this panel and 15% of them were active in at least one assay; those are over-represented in the sample as a whole.
experimental.endpoint: growth inhibition (%)
Only the number, expressed in %, is required.

Reference set, count: 10
For the compound shown here, c1cc(-c2cnc(-c3ccc4c(c3)CCCO4)o2)ccn1 , give the reported growth inhibition.
17.9

Same thing, different compound: Nc1nc(CC2(O)CCCCC2)cc(-c2ccccc2)n1
55.2

Same thing, different compound: CC1SCc2nc3ccccc3n21 (centres undefined)
12.1

Same thing, different compound: CSCCC(Nc1ccc([N+](=O)[O-])cc1[N+](=O)[O-])C(=O)O (centres undefined)
18.1

Same thing, different compound: CCCCCCCCCCCC(O)C(C)(C)C (centres undefined)
-39.2

Same thing, different compound: CC1([N+](=O)[O-])COC(Cc2ccccc2)OC1 (centres undefined)
-17.3

Same thing, different compound: Cc1cn(C2CC(O)C(CO)O2)c(=O)nc1N1CCSCC1 (centres undefined)
-32.8

Same thing, different compound: COc1cc(C)c(O)c(C(=O)O)c1
0.05

Same thing, different compound: COCCOC(=O)COc1ccccc1
3.5

Same thing, different compound: COc1ccc(NC(=O)CC/C(CC(=O)c2ccco2)=N/NC(=O)C(N)=O)cc1
-7.15

--- query ---
For the compound shown here, CCN(CC)CCCCCCNc1cc(O)cc2cccnc12 , give the reported growth inhibition.
8.45
